Below is a list of entries, each paired with its recorded PDI value.
test: LNP average particle size and polydispersity by dynamic light scattering; assay type: physicochemical; settings: Table 3, Experiments 1-13; LNP 50% ionizable lipid, 38% cholesterol, 9% DSPC, 3% PEG2K-DMG; sgRNA:mRNA 1:2

CCCCCCCCC(CCCCCCCC)OC(=O)CCCCCCC(=O)OCC(COC(=O)CCCCCCC(=O)OC(CCCCCCCC)CCCCCCCC)COC(=O)NCCCN(CC)CC    0.16
CCCCC/C=C\C/C=C\CCCCCCCCC(COC(=O)CCCCCC(=O)OC(CCCCCCCC)CCCCCCCC)COC(=O)NCCN(CC)CC (stereo not shown)    0.02
CCCCC/C=C\C/C=C\CCCCCCCC(=O)OCC(CCCCCCC(=O)OC(CCCCCCCC)CCCCCCCC)COC(=O)OCCCN(CC)CC (stereo not shown)    0.03
CCCCC/C=C\C/C=C\CCCCCCCC(=O)OCC(CCCCCCC(=O)OC(CCCC)CCCC)COC(=O)OCCCN(CC)CC (stereo not shown)    0.05

Inquiry: Recall and state the measured PDI for CCCCCCCCOC(CCC(=O)OCC(COC(=O)NCCN(CC)CC)COC(=O)C(CCCC)CCCCCC)OCCCCCCCC (stereo not shown) .
Reply text: 0.02

Inquiry: Recall and state the measured PDI for CCCCCCCCC(CCCCCCCC)OC(=O)CCCC(=O)OCC(COC(=O)CCCC(=O)OC(CCCCCCCC)CCCCCCCC)COC(=O)NCCN1CCCC1 .
Reply text: 0.023

Inquiry: Recall and state the measured PDI for CCCCCCCCC(CCCCCCCC)OC(=O)CCCC(=O)OCC(COC(=O)CCCC(=O)OC(CCCCCCCC)CCCCCCCC)COC(=O)OCCCN(C)CC .
Reply text: 0.02

Inquiry: Recall and state the measured PDI for CCCCCCCCC(CCCCCCCC)OC(=O)CCCC(=O)OCC(COC(=O)CCCC(=O)OC(CCCCCCCC)CCCCCCCC)COC(=O)OCCCN(C)C .
Reply text: 0.003

Inquiry: Recall and state the measured PDI for CCCCCCCCC(CCCCCCCC)OC(=O)CCCCCC(=O)OCC(COC(=O)CCCCCC(=O)OC(CCCCCCCC)CCCCCCCC)COC(=O)OCCCN(CC)CC .
Reply text: 0.004

Inquiry: Recall and state the measured PDI for CCCCCCCCOC(CCC(=O)OCC(COC(=O)CCC(OCCCCCCCC)OCCCCCCCC)COC(=O)OCCCN(CC)CC)OCCCCCCCC .
Reply text: 0.06

Inquiry: Recall and state the measured PDI for CCCCCCCCC(CCCCCCCC)OC(=O)CCCC(=O)OCC(COC(=O)CCCC(=O)OC(CCCCCCCC)CCCCCCCC)COC(=O)OCCCN1CCCCC1 .
Reply text: 0.008

Inquiry: Recall and state the measured PDI for CCCCCCCCC(CCCCCCCC)OC(=O)CCCC(=O)OCC(COC(=O)CCCC(=O)OC(CCCCCCCC)CCCCCCCC)COC(=O)OCCCN(CC)CC .
Reply text: 0.01

Inquiry: Recall and state the measured PDI for CCCCC/C=C\C/C=C\CCCCCCCC(=O)OCC(CCCCC(=O)OC(CCCC)CCCC)COC(=O)OCCCN(C)CC (stereo not shown) .
Reply text: 0.04

Ref: patent US20260337153A1
